- Target under test: Cdc42WT
- Assay protocol: inhibitors of GTP binding to eight small GTPases, SAR follow-up, biochemical, round 1 SAR, Mg buffer, multiplex flow cytometry (AID 588479)
- Experimental setup: multiplex GST-GTPase beads, Bodipy-GTP binding, wild type, at 100 µM (top of the series)
Records with an inconclusive call do not appear. Active and inactive are the calls of the source.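 How the source made its calls: active means eight-GTPase mean potency score over 50, needing half-effect dose up to 10 µM and response span 30% or more; inconclusive means no clear call, values can overlap the other calls; inactive means the rest.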
Endpoint name: response, lower = inhibition

Record excerpt, results attached:
{"Chemical string": "CC1(C)Cc2c(sc(NC(=S)NC(=O)c3cccc(Br)c3)c2C(=O)O)CO1", "Target under test": "Cdc42WT", "response, lower = inhibition": "inactive"}
{"Chemical string": "Cc1ccc(NC(=O)Nc2sc3c(c2C(=O)O)CCN(C)C3)cc1", "Target under test": "Cdc42WT", "response, lower = inhibition": "inactive"}
{"Chemical string": "CC1(C)Cc2c(sc(NC(=O)Cc3ccccc3)c2C(=O)O)CO1", "Target under test": "Cdc42WT", "response, lower = inhibition": "inactive"}
{"Chemical string": "CC1(C)Cc2c(sc(NC(=S)Nc3ccccc3)c2C(=O)O)CO1", "Target under test": "Cdc42WT", "response, lower = inhibition": "inactive"}

IN: Hello, please tell me recorded response, lower = inhibition for this one: CCOC(=O)c1c(N)sc2ccccc12
OUT: inactive

====

// reported pEC50 for each item listed
- Target under test: Cdc42WT
- Assay protocol: inhibitors of GTP binding to eight small GTPases, SAR follow-up, biochemical, round 1 SAR, Mg buffer, multiplex flow cytometry (AID 588479)
- Experimental setup: multiplex GST-GTPase beads, Bodipy-GTP binding, wild type
Results filed as inconclusive are left out.
Note: pEC50 values are expressed as the negative base-10 logarithm of concentration in M.

See these solved cases before continuing.
{"Chemical string": "CC1(C)Cc2c(sc(NC(=S)NC(=O)c3cccc(F)c3)c2C(=O)O)CO1", "pEC50": 6.31}
{"Chemical string": "COc1ccc(C(=O)NC(=S)Nc2sc3c(c2C(=O)O)CC(C)(C)OC3)cc1", "pEC50": 6.90}

IN: Kindly indicate its recorded pEC50. Item: CC1(C)Cc2c(sc(NC(=S)NC(=O)c3ccccc3F)c2C(=O)O)CO1
OUT: 7.19

IN: Tell me its pEC50 given CC1(C)Cc2c(sc(NC(=S)NC(=O)c3ccc(Br)cc3)c2C(=O)O)CO1 as the entry.
OUT: 6.81

IN: # return recorded pEC50 for entry CC1(C)Cc2c(sc(NC(=S)NC(=O)c3ccccc3Br)c2C(=O)O)CO1
OUT: 7.16

IN: Tell me measured pEC50 for COc1cccc(C(=O)NC(=S)Nc2sc3c(c2C(=O)O)CC(C)(C)OC3)c1 please.
OUT: 6.93

IN: Name the recorded pEC50 of the item CC1(C)CCc2sc(NC(=S)NC(=O)c3ccccc3)c(C(=O)O)c2C1 in your answer.
OUT: 7.00

====

- Target under test: RacACT
- Assay protocol: inhibitors of GTP binding to eight small GTPases, SAR follow-up, biochemical, round 1 SAR, Mg buffer, multiplex flow cytometry (AID 588479)
- Experimental setup: multiplex GST-GTPase beads, Bodipy-GTP binding, constitutively active
Records with an inconclusive call do not appear.
Endpoint name: EC50

For orientation, consider the following solved cases.
{"Chemical string": "CC1(C)CCc2sc(NC(=S)NC(=O)c3ccccc3)c(C(=O)O)c2C1", "EC50": "0.109 µM"}
{"Chemical string": "CC1(C)Cc2c(sc(NC(=S)NC(=O)c3ccccc3Br)c2C(=O)O)CO1", "EC50": "0.071 µM"}
{"Chemical string": "CC1(C)Cc2c(sc(NC(=S)NC(=O)c3ccccc3F)c2C(=O)O)CO1", "EC50": "0.059 µM"}
{"Chemical string": "CC1(C)Cc2c(sc(NC(=S)NC(=O)c3ccc(Br)cc3)c2C(=O)O)CO1", "EC50": "0.204 µM"}
{"Chemical string": "COc1cccc(C(=O)NC(=S)Nc2sc3c(c2C(=O)O)CC(C)(C)OC3)c1", "EC50": "0.122 µM"}
{"Chemical string": "CC1(C)Cc2c(sc(NC(=S)NC(=O)c3cccc(F)c3)c2C(=O)O)CO1", "EC50": "0.466 µM"}

Please examine the following record next.
IN: Give recorded EC50. COc1ccc(C(=O)NC(=S)Nc2sc3c(c2C(=O)O)CC(C)(C)OC3)cc1
OUT: 0.142 µM

====

- Target under test: RacWT
- Assay protocol: inhibitors of GTP binding to eight small GTPases, SAR follow-up, biochemical, round 1 SAR, Mg buffer, multiplex flow cytometry (AID 588479)
- Experimental setup: multiplex GST-GTPase beads, Bodipy-GTP binding, wild type, at 100 µM (top of the series)
Results filed as inconclusive are left out. Calls of active or inactive are those of the source.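 The calls were made as follows: active = eight-GTPase mean potency score over 50, needing half-effect dose up to 10 µM and response span 30% or more; inconclusive = no clear call, values can overlap the other calls; inactive = the rest.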
Endpoint name: response, lower = inhibition

// worked examples, response, lower = inhibition included
{"Chemical string": "Cc1ccc(NC(=O)Nc2sc3c(c2C(=O)O)CCN(C)C3)cc1", "Endpoint name": "response, lower = inhibition", "Recorded measurement": "inactive"}
{"Chemical string": "CCOC(=O)c1c(N)sc2ccccc12", "Endpoint name": "response, lower = inhibition", "Recorded measurement": "inactive"}
{"Chemical string": "CC1(C)Cc2c(sc(NC(=O)Cc3ccccc3)c2C(=O)O)CO1", "Endpoint name": "response, lower = inhibition", "Recorded measurement": "inactive"}
{"Chemical string": "CC1(C)Cc2c(sc(NC(=S)NC(=O)c3ccccc3Br)c2C(=O)O)CO1", "Endpoint name": "response, lower = inhibition", "Recorded measurement": "inactive"}
{"Chemical string": "CC1(C)Cc2c(sc(NC(=S)Nc3ccccc3)c2C(=O)O)CO1", "Endpoint name": "response, lower = inhibition", "Recorded measurement": "inactive"}

IN: Quick one: give measured response, lower = inhibition for CC1(C)Cc2c(sc(NC(=S)NC(=O)c3cccc(Br)c3)c2C(=O)O)CO1
OUT: inactive

====

- Target under test: Cdc42ACT
- Assay protocol: inhibitors of GTP binding to eight small GTPases, SAR follow-up, biochemical, round 1 SAR, Mg buffer, multiplex flow cytometry (AID 588479)
- Experimental setup: multiplex GST-GTPase beads, Bodipy-GTP binding, constitutively active
Results filed as inconclusive are left out.
Each entry below carries its reported pEC50.
On this scale, pEC50 is minus log10 of a concentration expressed in M (mol/L).

Check out these entries, answers already filled in.
{"Chemical string": "CC1(C)CCc2sc(NC(=S)NC(=O)c3ccccc3)c(C(=O)O)c2C1", "pEC50": 6.97}
{"Chemical string": "COc1ccc(C(=O)NC(=S)Nc2sc3c(c2C(=O)O)CC(C)(C)OC3)cc1", "pEC50": 6.84}
{"Chemical string": "CC1(C)Cc2c(sc(NC(=S)NC(=O)c3ccccc3F)c2C(=O)O)CO1", "pEC50": 7.22}
{"Chemical string": "COc1cccc(C(=O)NC(=S)Nc2sc3c(c2C(=O)O)CC(C)(C)OC3)c1", "pEC50": 6.91}
{"Chemical string": "CC1(C)Cc2c(sc(NC(=S)NC(=O)c3ccc(Br)cc3)c2C(=O)O)CO1", "pEC50": 6.77}

Attention now turns to another entry.
IN: Please give the documented pEC50 of CC1(C)Cc2c(sc(NC(=S)NC(=O)c3cccc(F)c3)c2C(=O)O)CO1
OUT: 6.33

====

- Target under test: RacWT
- Assay protocol: inhibitors of GTP binding to eight small GTPases, SAR follow-up, biochemical, round 1 SAR, Mg buffer, multiplex flow cytometry (AID 588479)
- Experimental setup: multiplex GST-GTPase beads, Bodipy-GTP binding, wild type
pEC50: −log10 of the molar value. Records with an inconclusive call do not appear.
Given measured pEC50, output Fulfilled if it is greater than or equal to 7 and Not fulfilled if not.

Consider the following illustrative entries.
{"Chemical string": "CC1(C)Cc2c(sc(NC(=S)NC(=O)c3cccc(F)c3)c2C(=O)O)CO1", "Target under test": "RacWT", "Assigned category": "Not fulfilled"}
{"Chemical string": "CC1(C)Cc2c(sc(NC(=S)NC(=O)c3ccc(Br)cc3)c2C(=O)O)CO1", "Target under test": "RacWT", "Assigned category": "Not fulfilled"}

Turning to the following compound.
IN: In plain terms: is recorded pEC50 at least 7 for CC1(C)Cc2c(sc(NC(=S)NC(=O)c3ccccc3F)c2C(=O)O)CO1 ?
OUT: Fulfilled

====

- Target under test: RhoWT
- Assay protocol: inhibitors of GTP binding to eight small GTPases, SAR follow-up, biochemical, round 1 SAR, Mg buffer, multiplex flow cytometry (AID 588479)
- Experimental setup: multiplex GST-GTPase beads, Bodipy-GTP binding, wild type
Records with an inconclusive call do not appear.
Endpoint name: pEC50
# log scale: pEC50 equals minus log10 of the concentration in mol/L

Solved entries (count: 5):
{"Chemical string": "CC1(C)Cc2c(sc(NC(=S)NC(=O)c3ccc(Br)cc3)c2C(=O)O)CO1", "pEC50": 6.55}
{"Chemical string": "CC1(C)Cc2c(sc(NC(=S)NC(=O)c3ccccc3F)c2C(=O)O)CO1", "pEC50": 7.19}
{"Chemical string": "CC1(C)CCc2sc(NC(=S)NC(=O)c3ccccc3)c(C(=O)O)c2C1", "pEC50": 7.09}
{"Chemical string": "CC1(C)Cc2c(sc(NC(=S)NC(=O)c3cccc(F)c3)c2C(=O)O)CO1", "pEC50": 6.30}
{"Chemical string": "COc1ccc(C(=O)NC(=S)Nc2sc3c(c2C(=O)O)CC(C)(C)OC3)cc1", "pEC50": 6.86}

IN: Please indicate pEC50 recorded for COc1cccc(C(=O)NC(=S)Nc2sc3c(c2C(=O)O)CC(C)(C)OC3)c1
OUT: 6.95

IN: Could you please provide reported pEC50 for CC1(C)Cc2c(sc(NC(=S)NC(=O)c3ccccc3Br)c2C(=O)O)CO1 ? Thanks!
OUT: 7.15
